Would you kindly list CC50 for each of these molecules?
Tested on: ACHN
Give the value, in units of µM, as a plain number.

Problem: // query CC50 value for entry `C=C1C(=O)O[C@H]2[C@H]1CC/C(COC(=O)NC)=C\CC[C@@]1(C)O[C@@H]21`
Result: 43.3

Problem: Repeat with `C=C1C(=O)O[C@H]2[C@H]1CC/C(COC(=O)CCC(=O)N1CCC(C)CC1)=C\CC[C@@]1(C)O[C@@H]21`
Result: 43.5

Problem: `C=C1C(=O)O[C@H]2[C@H]1CC/C(COC(=O)NCCN1CCCCC1)=C\CC[C@@]1(C)O[C@@H]21` ?
Result: 45.6

Problem: Same for `C=C1C(=O)O[C@H]2[C@H]1CC/C(COC(=O)NCCO)=C\CC[C@@]1(C)O[C@@H]21`
Result: 71.1

Problem: Another molecule to check: `C=C1C(=O)O[C@H]2[C@H]1CC/C(COC(=O)N1CCN(C)CC1)=C\CC[C@@]1(C)O[C@@H]21`
Result: 52.6

The origin of these recorded values is patent US9469650B2.
